test: In vivo biodistribution in normal ICR mice; conditions: i.v., 60 min
Kindly supply the reported Biodistribution of radioactivity, kidney values for the records listed here.
Express it in % injected dose per gram; write the number only.

Entry [18F]CCOc1ccc(COc2ccc(I)cc2)cc1 [[^18F]12a] ; Biodistribution of radioactivity, kidney = 5.48

The recorded Biodistribution of radioactivity, kidney for FCCOc1ccc(OCc2ccc([125I])cc2)cc1 [[^125I]7a] is 6.56

# molecule FCCOc1ccc(COc2ccc([125I])cc2)cc1 [[^125I]12a] ; its Biodistribution of radioactivity, kidney = 6.09

The measured Biodistribution of radioactivity, kidney associated with [18F]CCOc1ccc(OCc2ccc(I)cc2)cc1 [[^18F]7a] reads 4.77
